Biological target: Gal4 DNA binding domain fused to the LBD of LXRα in HEK293 cells (Homo sapiens (Human))
Sequence (Q13133 209-447): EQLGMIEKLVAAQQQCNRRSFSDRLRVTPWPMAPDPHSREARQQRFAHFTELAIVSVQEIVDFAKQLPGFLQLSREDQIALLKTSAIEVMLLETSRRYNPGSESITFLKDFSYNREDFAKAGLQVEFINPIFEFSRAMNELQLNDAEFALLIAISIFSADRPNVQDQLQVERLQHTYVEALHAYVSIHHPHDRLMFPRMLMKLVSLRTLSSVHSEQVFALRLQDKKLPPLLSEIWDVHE
Experiment: LXR luciferase transcriptional reporter gene assay, agonist mode, LXRα
Format: cell-based
Conditions: read-out: Cell LXRα EC50
Listed here are molecules together with their documented pEC50.
FYI, pEC50 means -log10 of a concentration in mol per litre.

MOLECULE: Cc1nc(N2CCN(c3ccc(F)c(S(C)(=O)=O)c3)C[C@H]2C(C)C)ncc1Cl
TESTED ON: Gal4 DNA binding domain fused to the LBD of LXRα in HEK293 cells (Homo sapiens (Human))
ENDPOINT NAME: pEC50
READOUT NUMBER: 6.00
//
MOLECULE: CC(C)[C@H]1CC[C@H](CN2CCN(c3cccc(S(C)(=O)=O)c3)C[C@@H]2c2ccccc2)CC1 (single isomer, unassigned)
TESTED ON: Gal4 DNA binding domain fused to the LBD of LXRα in HEK293 cells (Homo sapiens (Human))
ENDPOINT NAME: pEC50
READOUT NUMBER: 5.78

We next turn to a different molecule, shown below.
IN: For the molecule CC(C)[C@H]1CN(c2cccc(S(C)(=O)=O)c2)CCN1CC1CCC(C)(C)CC1 , what pEC50 is on record?
OUT: 6.76
